Target Or Test System: human recombinant HDAC6 (Homo sapiens, UniProt Q9UBN7)
Construct: purchased Calbiochem Inc. 382180
Sequence (Q9UBN7 whole entry): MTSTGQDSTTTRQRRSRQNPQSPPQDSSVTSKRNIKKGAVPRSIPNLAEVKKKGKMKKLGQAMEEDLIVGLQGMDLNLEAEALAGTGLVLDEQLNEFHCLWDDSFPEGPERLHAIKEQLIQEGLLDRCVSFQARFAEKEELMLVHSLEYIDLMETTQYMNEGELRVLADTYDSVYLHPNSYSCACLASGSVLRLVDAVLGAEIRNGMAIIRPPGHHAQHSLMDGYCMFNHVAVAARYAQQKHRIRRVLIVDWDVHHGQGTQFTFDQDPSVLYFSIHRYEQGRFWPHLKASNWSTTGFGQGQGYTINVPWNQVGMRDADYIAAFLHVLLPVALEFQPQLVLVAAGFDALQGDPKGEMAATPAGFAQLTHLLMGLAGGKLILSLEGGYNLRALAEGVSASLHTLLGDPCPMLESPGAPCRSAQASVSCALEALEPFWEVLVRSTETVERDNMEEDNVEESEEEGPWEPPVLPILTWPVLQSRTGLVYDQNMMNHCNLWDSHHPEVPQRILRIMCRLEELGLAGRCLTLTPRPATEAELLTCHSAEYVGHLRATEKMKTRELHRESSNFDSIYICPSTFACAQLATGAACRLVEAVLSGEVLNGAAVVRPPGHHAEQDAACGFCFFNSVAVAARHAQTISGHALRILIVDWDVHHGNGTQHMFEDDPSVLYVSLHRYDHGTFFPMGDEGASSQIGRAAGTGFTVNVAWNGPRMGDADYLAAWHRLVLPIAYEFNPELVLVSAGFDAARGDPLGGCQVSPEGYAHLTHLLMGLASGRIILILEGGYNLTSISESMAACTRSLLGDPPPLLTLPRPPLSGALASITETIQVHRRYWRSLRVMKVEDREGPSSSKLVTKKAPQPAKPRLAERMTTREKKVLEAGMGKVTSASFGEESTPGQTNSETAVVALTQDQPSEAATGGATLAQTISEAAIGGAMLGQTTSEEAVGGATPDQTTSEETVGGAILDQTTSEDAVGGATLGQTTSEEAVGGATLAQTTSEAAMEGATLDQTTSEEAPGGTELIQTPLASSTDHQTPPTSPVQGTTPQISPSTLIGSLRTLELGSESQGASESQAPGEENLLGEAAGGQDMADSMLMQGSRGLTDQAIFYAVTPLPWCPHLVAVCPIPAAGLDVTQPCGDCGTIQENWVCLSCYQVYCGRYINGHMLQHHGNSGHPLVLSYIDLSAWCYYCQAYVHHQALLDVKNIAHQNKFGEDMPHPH
Test: HDAC6 enzyme activity inhibition (HDAC Fluorimetric Drug Discovery Kit)
Format: biochemical
Applied Conditions: human recombinant HDAC6, same protocol as HDAC1
pIC50: −log10 of the molar value.
Quantity Kind: pIC50

Use these answered entries as a reference point.
>  <Smiles Repr>
CCN1CC(c2cccc(-c3cn(Cc4ccc(-c5nnc(C(F)F)o5)cc4)nn3)c2)C1

>  <Quantity Kind>
pIC50

>  <Endpoint Value>
7.44

$$$$
>  <Smiles Repr>
Fc1cc(-c2cn(Cc3ncc(-c4nnc(C(F)F)o4)cc3F)nn2)ccc1CN1CCCC1

>  <Quantity Kind>
pIC50

>  <Endpoint Value>
7.23

$$$$
>  <Smiles Repr>
CC(C)N1CCN(c2cccc(-c3cn(Cc4ccc(-c5nnc(C(F)F)o5)cc4F)nn3)c2F)CC1

>  <Quantity Kind>
pIC50

>  <Endpoint Value>
7.59

$$$$

(I) Fc1cc(-c2nnc(C(F)F)o2)cnc1Cn1cc(-c2cccc(CN3CCCC3)c2Cl)nn1
(II) Fc1cc(-c2nnc(C(F)F)o2)cnc1Cn1cc(-c2cccc3[nH]ncc23)nn1
(III) Fc1cc(-c2nnc(C(F)F)o2)ccc1Cn1cc(-c2cncc(Br)c2)nn1
Please order the records by their reported pIC50, lowest number first. Please list the labels according to the requested order.
I, III, II

(1) FC(F)c1nnc(-c2ccc(Cn3cc(-c4cccc5c4CN(C4CCC4)C5)nn3)nc2)o1
(2) CCN1CCN(Cc2ccc(-c3cn(Cc4ccc(-c5nnc(C(F)F)o5)cn4)nn3)cc2)CC1
(3) Cc1csc(-c2cn(Cc3ccc(-c4nnc(C(F)F)o4)cc3F)nn2)n1
Hello, I need these entries ordered by pIC50, highest reading first. Thanks! Answer format: the labels, ordered as requested.
2, 1, 3

(1) CC1(C)CCN(Cc2ccc(-c3cn(Cc4ccc(-c5nnc(C(F)F)o5)cc4F)nn3)cn2)CC1
(2) FC(F)c1nnc(-c2ccc(Cn3cc(-c4ccnc(N5CCN(C6CC6)CC5)c4)nn3)nc2)o1
Between these two entries, 1 and 2 , state which has the higher pIC50. Indicate which entry you chose by stating its label.
2

(1) Fc1cc(-c2nnc(C(F)F)o2)ccc1Cn1cc(-c2csc(CN3CC[C@@H](F)C3)c2)nn1
(2) Fc1cc(-c2nnc(C(F)F)o2)ccc1Cn1cc(-c2cccc(N3CCN(C4COC4)CC3)n2)nn1
Lower pIC50: 1 or 2 ? Could you answer with the label of the item you picked?
1
(1: 7.13, 2: 7.44)

###

Target Or Test System: human recombinant HDAC6 (Homo sapiens)
Construct: purchased Calbiochem Inc. 382180
Test: HDAC6 enzyme activity inhibition (HDAC Fluorimetric Drug Discovery Kit)
Type: biochemical
Applied Conditions: human recombinant HDAC6; IC50 calculated with GraphPad Prism
pIC50: −log10 of the molar value.
Quantity Kind: pIC50

Worked set:
>  <Molecule>
CC(C)(C)OC(=O)N1CCC(Cc2cn(Cc3ccc(-c4nnc(C(F)F)o4)cn3)nn2)CC1 [Compound 4000]

>  <pIC50>
6.46

$$$$
>  <Molecule>
CC(=O)N1CCC(Cc2cn(Cc3ccc(-c4nnc(C(F)F)o4)cn3)nn2)CC1 [Compound 4015]

>  <pIC50>
6.33

$$$$
>  <Molecule>
CN(C)CC(=O)Nc1cccc(-c2cn(Cc3ccc(-c4nnc(C(F)F)o4)cn3)nn2)c1 [Compound 4230]

>  <pIC50>
7.64

$$$$
>  <Molecule>
FC(F)c1nnc(-c2ccc(Cn3cc(CCc4cn5ccccc5n4)nn3)nc2)o1 [Compound 3822]

>  <pIC50>
6.69

$$$$
>  <Molecule>
CC(C)N1C[C@@H]2C[C@H]1CN2c1cccc(-c2cn(Cc3ccc(-c4nnc(C(F)F)o4)cc3)nn2)c1 [Compound 4321]

>  <pIC50>
6.95

$$$$

(I) CCN1CCC(c2cccc(-c3cn(Cc4ccc(-c5nnc(C(F)F)o5)cc4F)nn3)c2)CC1 [Compound 4291]
(II) FC(F)c1nnc(-c2ccc(Cn3cc([C@@H]4CCCN4C4CC5(COC5)C4)nn3)nc2)o1 [Compound 4027]
(III) Fc1cc(-c2nnc(C(F)F)o2)ccc1Cn1cc(-c2cccc3[nH]ncc23)nn1 [Compound 4348]
(IV) CC(=O)N1CCC(c2cn(Cc3ccc(-c4nnc(C(F)F)o4)cn3)nn2)CC1 [Compound 3811]
// ranking: key=pIC50, reverse=True To answer, write out the labels according to the requested order.
III, I, IV, II
(III: 8.17, I: 7.37, IV: 6.68, II: 5.30)

(a) CN1CCc2ccc(-c3cn(Cc4ccc(-c5nnc(C(F)F)o5)cn4)nn3)cc2C1 [Compound 4209]
(b) FC(F)c1nnc(-c2ccc(Cn3cc(-c4ccccc4)nn3)cc2)o1 [Compound 3657]
(c) FC(F)c1cccc(-c2cn(Cc3ccc(-c4nnc(C(F)F)o4)cn3)nn2)c1 [Compound 4489]
Write the entries in order, lowest recorded pIC50 first. Arrange the labels as the request states and list them.
b, a, c
(b: 7.02, a: 7.41, c: 7.83)

(P) FC(F)c1nnc(-c2ccc(Cn3cc(-c4ccc5c(c4)CN(C4CCC4)CC5)nn3)nc2)o1 [Compound 4212]
(Q) FC(F)c1nnc(-c2ccc(Cn3cc(-c4ccc5sccc5c4)nn3)nc2)o1 [Compound 4074]
Which of the two items, P and Q , has the greater recorded pIC50? Write down the label attached to your selection.
P

(A) FC(F)c1nnc(-c2ccc(Cn3cc(-c4cccc(CN5CCCC5)c4)nn3)nc2)o1 [Compound 3966]
(B) O=C(Nc1cccc(-c2cn(Cc3ccc(-c4nnc(C(F)F)o4)cn3)nn2)c1)C1CNC1 [Compound 4463]
Which one would you say has the larger pIC50 value: A , or B ? Lab log: write the label of the selected item as the result.
A
